Target: Cathepsin G (Homo sapiens)
Experiment: human cathepsin G inhibitors, primary screen, biochemical, pooled compound mixtures, AMC fluorescence (AID 581);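 also: 0% = enzyme control without mixture and 100% = blank lacking enzyme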
Details: purified enzyme, AMC-tetrapeptide fluorescence, active compounds read high, screened at 5 µM (by protocol)
In all, about 62,000 compounds went through this assay and about 95 (0.2%) were called active. For the sample, actives were picked, then their nearest neighbours and some compounds at random.
assayMetric: inhibition (%)

compound=CCOC(=O)c1ccc(NC(=O)CS(=O)(=O)c2cn(CC)c3ccccc23)cc1 systemname="Cathepsin G (Homo sapiens)" assaymetric=inhibition quantitativeresult=29.3
compound="CCC(C)Sc1nc(C)nc2c1c(=O)n(C)c(=O)n2C (stereo unspecified)" systemname="Cathepsin G (Homo sapiens)" assaymetric=inhibition quantitativeresult=8.64
compound=CCOC(=O)c1ccc(NC(=O)CSc2ncccn2)cc1 systemname="Cathepsin G (Homo sapiens)" assaymetric=inhibition quantitativeresult=-1.62
compound=CCOC(=O)c1ccc(NC(=O)Cn2nnc(-c3ccc(C)cc3)n2)cc1 systemname="Cathepsin G (Homo sapiens)" assaymetric=inhibition quantitativeresult=-7.1
compound="COc1cccc(C2/C(=C(/O)c3ccncc3)C(=O)C(=O)N2CCCN(C)C)c1 (stereo unspecified)" systemname="Cathepsin G (Homo sapiens)" assaymetric=inhibition quantitativeresult=6.68
compound=c1cc(-n2cnnn2)ccc1NC1=NCCC1 systemname="Cathepsin G (Homo sapiens)" assaymetric=inhibition quantitativeresult=-2.07
compound="CCOc1ccc(C(=O)N(Cc2ccc(N(C)C)cc2)C2CCS(=O)(=O)C2)cc1 (stereo unspecified)" systemname="Cathepsin G (Homo sapiens)" assaymetric=inhibition quantitativeresult=7.67
compound=CCS(=O)(=O)NCCc1ccc(OC)c(OC)c1 systemname="Cathepsin G (Homo sapiens)" assaymetric=inhibition quantitativeresult=13.1
compound=O=C(O)CSC(NC(=O)c1cccnc1)(C(F)(F)F)C(F)(F)F systemname="Cathepsin G (Homo sapiens)" assaymetric=inhibition quantitativeresult=4.23
compound=COCCNc1nc(-n2nc(C)cc2C)nc2sc3c(c12)CCCC3 systemname="Cathepsin G (Homo sapiens)" assaymetric=inhibition quantitativeresult=-7.79
compound="O=C1CCC(C(=O)Nc2ccc(OC(F)F)cc2)N1 (stereo unspecified)" systemname="Cathepsin G (Homo sapiens)" assaymetric=inhibition quantitativeresult=1.46
